Sourced from patent US20150104459A1

Target: recombinant soluble homotrimeric HA of A/Vietnam/1203/04 (H5N1) (Influenza A virus A/Vietnam/1203/2004 (H5N1))
Assay: HA microarray, BCC supernatant
Details: remark: other sources report otherwise
outcomeMeasure: Trimeric HA Binding RLU (RLU)
Supply the numeric figure in RLU, leaving out any unit text.

Any idea what Trimeric HA Binding RLU was measured for TCN-523 (5248_A17) (antibody, V domains shown) VH: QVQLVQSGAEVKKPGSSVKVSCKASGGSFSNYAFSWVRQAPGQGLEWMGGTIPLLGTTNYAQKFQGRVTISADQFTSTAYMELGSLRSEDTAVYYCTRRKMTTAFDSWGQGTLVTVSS VL: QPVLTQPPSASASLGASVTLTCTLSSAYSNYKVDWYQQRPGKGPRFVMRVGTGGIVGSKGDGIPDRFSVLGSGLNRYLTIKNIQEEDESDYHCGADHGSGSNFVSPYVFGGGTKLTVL ? 3380

Any idea what Trimeric HA Binding RLU was measured for TCN-552 (5249_I23) (antibody, V domains shown) VH: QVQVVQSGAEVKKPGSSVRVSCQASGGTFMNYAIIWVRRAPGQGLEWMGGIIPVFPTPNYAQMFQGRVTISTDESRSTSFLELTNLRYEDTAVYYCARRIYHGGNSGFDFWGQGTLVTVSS VL: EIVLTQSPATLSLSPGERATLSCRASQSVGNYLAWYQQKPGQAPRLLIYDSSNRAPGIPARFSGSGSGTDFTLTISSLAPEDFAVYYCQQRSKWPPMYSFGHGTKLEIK ? 2730

Any idea what Trimeric HA Binding RLU was measured for TCN-550 (5096_F06) (antibody, V domains shown) VH: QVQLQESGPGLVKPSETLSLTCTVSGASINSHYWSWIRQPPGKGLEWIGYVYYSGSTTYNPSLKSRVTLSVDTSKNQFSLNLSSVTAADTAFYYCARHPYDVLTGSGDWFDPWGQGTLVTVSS VL: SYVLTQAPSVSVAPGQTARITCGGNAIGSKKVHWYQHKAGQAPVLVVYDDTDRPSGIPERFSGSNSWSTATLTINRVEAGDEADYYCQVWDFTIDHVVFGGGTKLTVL ? 277
